Ref: patent US20140056903A1

- testedTarget: T1, human GFRα3 expressed with a C-terminal myc-myc-hexahistidine tag (human, UniProt O60609 32-374, biotinylated (sites not given) in ELISA format 2 and in the Octet cross-competition; not in SPR)
- T1 construct: also called hGFRα3-mmh; hGFRα3-mmH
- T1 sequence (O60609 other isoform, or with tags, fused parts or gaps limits assumed): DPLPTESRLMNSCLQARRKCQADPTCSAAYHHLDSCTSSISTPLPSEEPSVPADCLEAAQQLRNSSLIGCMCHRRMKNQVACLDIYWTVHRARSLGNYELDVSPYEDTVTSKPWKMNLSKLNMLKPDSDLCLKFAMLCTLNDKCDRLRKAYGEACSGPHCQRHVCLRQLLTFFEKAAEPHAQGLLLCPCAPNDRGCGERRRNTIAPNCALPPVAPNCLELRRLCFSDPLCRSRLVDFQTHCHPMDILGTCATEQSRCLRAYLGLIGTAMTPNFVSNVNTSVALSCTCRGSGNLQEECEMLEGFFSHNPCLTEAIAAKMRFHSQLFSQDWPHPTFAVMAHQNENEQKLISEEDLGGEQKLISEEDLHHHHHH
- experiment: SPR, Ab captured, 37C
pKd: −log10 of the molar value.
readoutName: pKd

binder	readoutName	reportedMeasurement
H4H2352S (antibody, human IgG4, V domains shown, human IgG4 Fc (H4H); also called H4H2352S-1) VH: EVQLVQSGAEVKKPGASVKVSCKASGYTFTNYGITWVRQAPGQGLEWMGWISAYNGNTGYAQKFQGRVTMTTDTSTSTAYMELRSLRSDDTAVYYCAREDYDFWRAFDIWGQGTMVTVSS VL: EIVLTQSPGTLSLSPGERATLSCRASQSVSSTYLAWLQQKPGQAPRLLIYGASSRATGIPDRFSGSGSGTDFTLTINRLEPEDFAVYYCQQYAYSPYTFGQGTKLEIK	pKd	9.93
H4H2292S (antibody, human IgG4, V domains shown, human IgG4 Fc (H4H)) VH: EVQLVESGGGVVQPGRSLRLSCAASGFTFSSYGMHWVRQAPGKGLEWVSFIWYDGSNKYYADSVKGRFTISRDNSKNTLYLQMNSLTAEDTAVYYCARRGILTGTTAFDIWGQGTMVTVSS VL: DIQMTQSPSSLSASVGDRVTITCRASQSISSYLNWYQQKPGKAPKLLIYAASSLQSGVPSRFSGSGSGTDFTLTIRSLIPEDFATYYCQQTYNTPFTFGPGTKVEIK	pKd	8.71
H4H2243N2 (antibody, human IgG4, V domains shown, human IgG4 Fc (H4H)) VH: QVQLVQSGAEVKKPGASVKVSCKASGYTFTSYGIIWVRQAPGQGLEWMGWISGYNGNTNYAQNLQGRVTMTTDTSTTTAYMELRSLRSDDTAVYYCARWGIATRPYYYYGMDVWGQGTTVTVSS VL: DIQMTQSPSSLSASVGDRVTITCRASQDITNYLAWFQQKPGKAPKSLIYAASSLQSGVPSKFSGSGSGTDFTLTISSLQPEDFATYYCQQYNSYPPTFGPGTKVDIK	pKd	8.28
